assay: fission yeast growth modulation, primary screen, strain 972, OD600, 24 h, no modulator (AID 1090);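 note: basal condition with compound alone and no growth modifier present; test concentration not given here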; settings: S. pombe 972 growth, higher = more signal, called active from +8 up or from −8 down
property: z-score
# output: bare number, no unit

NC(=O)NCC#Cc1ccc2c(c1)[C@]1(C(=O)N2)[C@H](C(=O)Nc2nc3ccccc3s2)[C@H]2C(=O)O[C@H](c3ccccc3)[C@H](c3ccccc3)N2[C@@H]1c1ccccc1OCCO | 1.33
C=CC(=C)[C@H]1Oc2ccccc2S(=O)(=O)N2CCC[C@@H]12 | -2.71
C=C(COC)/C(=C/C[C@H](OC(C)=O)c1ccc(CO)o1)c1cc(C(=O)OC)ccc1OC | -0.131
O=C1c2ccccc2[C@](Cc2ccccc2I)(C(=O)NCCN2CCOCC2)[C@H](c2ccc(CO)cc2)N1Cc1ccccc1Cl | -0.0063
O[C@@H](Cc1ccccc1)[C@H]1C2C=CCCC=C2CN1Cc1cccc(Cl)c1 (some centres undefined) | -2.92

What value of measured z-score is listed for `CC(C)NC(=O)[C@@H]1c2ccccc2C(=O)N(C2Cc3ccccc3C2)[C@H]1c1ccc(CO)cc1` ?
-0.0232

Quick check: z-score of `COC(=O)[C@@]1(Cc2ccc(OC)cc2)[C@H]2c3cc(C(=O)N(C)C)n(Cc4ccc(S(C)(=O)=O)cc4)c3C[C@H]2CN1C(=O)c1ccccc1` ?
-0.462

z-score for `COCCOC(=O)N1C(=O)[C@@]2(c3ccccc31)[C@H](c1ccccc1OCCO)N1[C@H](c3ccccc3)[C@H](c3ccccc3)OC(=O)[C@H]1[C@@H]2C(=O)N1CCN(c2ncccn2)CC1` ?
1.58

Entry `COC(=O)[C@@]1(Cc2ccc(F)cc2)[C@H]2c3cc(C(=O)N4CCCC4)n(CCCNc4ncc(C(F)(F)F)cc4Cl)c3C[C@H]2CN1C(=O)c1ccccc1` has what z-score?
2.15

Entry under review: CC1CC/C=C\[C@H]2OC34C=CCN(Cc5ccccc5)C(=O)[C@H]3N(CCCO)C(=O)[C@@H]4C2C(=O)O1 (some centres undefined) . Reported z-score?
-1.25

What value of measured z-score is listed for `CO[C@H]1O[C@H](CO)[C@@H](OC(=O)Nc2ccc(C(F)(F)F)cc2)[C@H](OC(=O)Nc2ccc3c(c2)OCO3)[C@@H]1OC(=O)Nc1ccc2c(c1)OCO2` ?
0.942

Requested field: z-score. Item: CC1CC/C=C\[C@H]2OC34C=CCN(C(C)(C)C)C(=O)[C@H]3N(C(C)CO)C(=O)[C@@H]4C2C(=O)O1 (some centres undefined)
-0.538

* * *

test: MM1S myeloma cell viability, profiling panel, resazurin fluorescence, basal, 24 h, PK04 Diversity Set (AID 1174); conditions: higher = more signal, called active from +8 up or from −8 down;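 note: MM1S multiple myeloma cell line; test concentration not given here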
The following molecules are listed with their measured z-score values.
Answer field: number only, no words.

CC[C@@H]1C=C(C(=O)O)[C@H](c2ccc(Br)cc2)N1S(=O)(=O)c1ccc(C)cc1 | -0.459
CCOC(=O)C[C@H]1[C@H](OC(=O)c2cc3ccccc3oc2=O)[C@@H](NC(=O)c2ccccc2)c2cc(OCCCO)ccc2N1C(=O)c1ccc2ccccc2n1 | -1.04

Now for the molecule whose z-score we want.
z-score lookup needed for `O=C1c2ccccc2[C@](Cc2ccccc2I)(C(=O)NCCN2CCOCC2)[C@H](c2ccc(CO)cc2)N1C1CCCCC1` , thanks.
-0.526

* * *

target: Calmodulin-1 (Homo sapiens); experiment: calcium-bound CALM1 binders on microarrays, profiling panel, artefact control for SMM control-protein annotation, biochemical, small-molecule microarray, Cy5-labelled CALM1, plus calcium (AID 1112); details: Cy5-CALM1 binding fluorescence, higher = more signal;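 note: score merges spot fluorescence with signal to noise from triplicate slides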
# composite z-score per entry

Worked cases, answers included:
C=C(/C(=C/C[C@H](OC(C)=O)c1ccccc1OCCO)c1cnc2ccccc2c1)C(C)C | -0.378
CC1CC/C=C\[C@H]2OC34C=CCN(Cc5ccccc5)C(=O)[C@H]3N(CCCO)C(=O)[C@@H]4C2C(=O)O1 (stereo partly drawn) | 0.876

Okay, next one:
Entry under review: `COc1ccc(/C=C/C=O)cc1` . Reported composite z-score?
-0.732

* * *

test system: Fibrinogen (Alexa647-labelled); experiment: fibrinogen binders on compound microarrays, profiling panel, artefact control for SMM control-protein annotation, biochemical, small-molecule microarray, 635/667 nm fluorescence (AID 1131); conditions: fibrinogen-A647 binding fluorescence, higher = more signal;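 note: z-score merges 667 nm fluorescence with per-spot signal-to-noise over triplicate slides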
Label label 0 if composite z-score falls below 0.5; label label 1 in every other case.

CC(C)N1C(=O)c2ccccc2[C@](C)(C(=O)NCCN2CCOCC2)[C@@H]1c1ccc(CO)cc1 | label 0
CCCCCCc1nc(-c2cc(C)c(OC)c(C)c2)cc2c1[Si](C(C)C)(C(C)C)OC2 | label 0

Identify whether the reported composite z-score of the following compound is 0.5 or greater: `C[N+](C)(C)CCCCCCNC(=O)[C@@H]1C[C@@H]2C(=O)N[C@@H](Cc3ccccc3)C(=O)N2[C@@H]1c1cccc(OCCO)c1`
label 1

Hello, I need to know if `C=C(CCCC)/C(=C/C[C@H](OC(=O)c1ccncc1)c1ccccc1OCCO)c1cnc2ccccc2c1` has measured composite z-score not below 0.5. Thanks!
label 0

Quick check, composite z-score >= 0.5? `CC(C)CNC(=O)[C@@]1(Cc2ccccc2I)c2ccccc2C(=O)N(C2CCCCC2)[C@H]1c1ccc(CO)cc1`
label 0

* * *

test system: Chordin-like protein 2 (CHRDL2); experiment: CHRDL2 small-molecule binders, primary screen, biochemical, small-molecule microarray, 635 nm fluorescence (AID 1126); conditions: small-molecule microarray binding, fluorescence 635 nm; higher = more signal;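 note: printed compound slides probed with Chrdl2 protein at 4 µg/mL for 1 h at 4 C; score merges 667 nm emission intensity with signal to noise over three replicate slides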
property: composite z-score
Lab note: jot the number down without any unit.

C=CCNC(=O)[C@@H]1[C@H]2C(=O)O[C@H](c3ccccc3)[C@H](c3ccccc3)N2[C@H](c2ccc(O)cc2)[C@@]12C(=O)N(C(=O)OCCOC)c1ccc(C#CCNC(N)=O)cc12 | 0.155
O=C1C2C=CC(C(O)c3cccc4ccccc34)N(Nc3ccccc3F)C2C(=O)N1c1ccccc1 (stereo not drawn) | -0.539
[N-]=[N+]=Nc1ccccc1[C@@H]1OC(c2ccc(OCCCO)cc2)=N[C@]1(Cc1ccccc1)C(=O)N1CCOCC1 | 0.0383
CCCc1cc2c(n1Cc1cc(F)cc(F)c1)C(C)C1CN(C(=O)c3ccccc3)C(C)(C(=O)OC)C21 (stereo not drawn) | -0.255
O=C1c2ccccc2[C@](Cc2ccccc2I)(C(=O)NCCN2CCOCC2)[C@H](c2ccc(CO)cc2)N1Cc1ccccc1Cl | 0.202

I am curious: what composite z-score value has been reported for O=C1C2C=CC(C(O)Cc3ccccc3)N(n3cnnc3)C2C(=O)N1Cc1ccccc1 (stereo not drawn) ?
-0.748

Requested field: composite z-score. Item: C=CC1(C(=O)OC)CC=C(C(=O)OC)CC1 (stereo not drawn)
0.556

Report composite z-score for `CC(C)C[C@@H]1NC(=O)[C@@H]2C[C@H](C(=O)NCc3ccc(F)cc3)[C@H](c3cccc(OCCO)c3)N2C1=O` please.
0.915

* * *

target: Calmodulin-1 (Homo sapiens) (UniProt P0DP23); experiment: CALM1 binders on microarrays, EGTA buffer, profiling panel, biochemical, small-molecule microarray, Cy5-labelled CALM1 (AID 1111); conditions: Cy5-CALM1 binding fluorescence, higher = more signal;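 note: labelled calmodulin applied in Tris saline Tween buffer holding calcium plus EGTA and DTT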
property: composite z-score
Format: numeric value only, no unit, no commentary.

O=C(NCCN1CCOCC1)[C@@H]1c2ccccc2C(=O)N(C2CCCCC2)[C@H]1c1ccc(CO)cc1 | 0.0999

Here is the next item to consider.
Give Calmodulin-1 (Homo sapiens) (UniProt P0DP23) composite z-score for `COC(=O)[C@@]1(CCC(=O)OC(C)(C)C)N=C(c2ccc(OCCCO)cc2)O[C@H]1c1ccccc1N=[N+]=[N-]`
1.17

* * *

Catalogue of z-score values
target: NADPH oxidase 5 (Homo sapiens) (UniProt Q96PH1); test: NOX5-dependent H2O2 signal modulators, primary screen, NOX inhibitor project, cell-based, HEK293-NOX5, Amplex Red fluorescence (AID 1161); details: HEK293-NOX5, ionomycin, 45 min, higher = more signal
Sequence (Q96PH1 whole entry, looked up): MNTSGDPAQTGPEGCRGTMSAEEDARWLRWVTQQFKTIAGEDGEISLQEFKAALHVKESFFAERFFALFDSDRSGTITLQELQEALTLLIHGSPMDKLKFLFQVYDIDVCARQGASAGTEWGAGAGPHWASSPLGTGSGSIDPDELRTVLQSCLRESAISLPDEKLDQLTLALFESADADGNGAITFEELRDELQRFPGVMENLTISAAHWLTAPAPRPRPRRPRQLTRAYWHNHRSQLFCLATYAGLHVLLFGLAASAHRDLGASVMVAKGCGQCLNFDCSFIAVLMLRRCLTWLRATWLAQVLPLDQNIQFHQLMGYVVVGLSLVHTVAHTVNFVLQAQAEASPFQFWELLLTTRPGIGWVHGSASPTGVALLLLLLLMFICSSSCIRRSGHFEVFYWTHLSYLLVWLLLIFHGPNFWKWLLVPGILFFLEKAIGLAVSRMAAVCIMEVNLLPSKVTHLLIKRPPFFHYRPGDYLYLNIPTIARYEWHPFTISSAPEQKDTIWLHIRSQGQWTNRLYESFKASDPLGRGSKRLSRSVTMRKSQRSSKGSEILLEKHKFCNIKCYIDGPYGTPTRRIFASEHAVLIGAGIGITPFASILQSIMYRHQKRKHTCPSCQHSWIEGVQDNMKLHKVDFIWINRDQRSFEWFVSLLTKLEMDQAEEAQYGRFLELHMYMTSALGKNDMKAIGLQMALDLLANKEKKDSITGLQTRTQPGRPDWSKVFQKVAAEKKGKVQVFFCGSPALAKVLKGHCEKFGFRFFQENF
Reply with just the number.

Consider the following illustrative entries.
C=C(COC)C(=O)CC[C@@H](OC(C)=O)c1ccc(CO)o1 | 0.46
NC(=O)[C@@H]1[C@H]2C(=O)O[C@H](c3ccccc3)[C@H](c3ccccc3)N2[C@H](c2ccc(O)cc2)[C@@]12C(=O)Nc1ccccc12 | -0.42
CC(C)NC(=O)[C@@]1(c2ccc([N+](=O)[O-])cc2)CC(=O)N(C2CCCCC2)[C@@H]1c1ccc(CO)cc1I | 1.45
CCOC(=O)C[C@H]1[C@H](OC(=O)c2cc3ccccc3oc2=O)[C@@H](NC(=O)c2ccccc2)c2cc(OCCCO)ccc2N1C(=O)c1ccc2ccccc2n1 | 1.44

# next compound below
Using the record for `O=C1O[C@@H](c2ccccc2)[C@@H](c2ccccc2)N2[C@@H](c3ccccc3OCCO)[C@]3(C(=O)Nc4ccc(C#CC5=CCCCC5)cc43)[C@@H](C(=O)N3CCCCCCC3)[C@H]12` , report its z-score.
-0.797
